assay_explanation: qHTS assay to identify small molecule antagonists of the estrogen related receptor signaling pathway with the pleiotropic PPARgamma coactivator (PGC) from Tox21 10K library - cell viability counter screen (AID 1224840); also: nearly all actives have a fitted effect of over 40% in size
measurement_setup: PGC/ERR reporter cells viability, CellTiter-Fluor, 17.5 h; series mostly up to 92.4 µM
Records with an inconclusive call do not appear. Active and inactive are the calls of the source. Calls follow the shape of the dose curve; as a rule, active = well fitted cell-killing curve with a large enough effect in the repeat runs (not every such curve was filed as active); inconclusive = weak or mixed curves, or effect the other way; inactive = no such curve, though single readings can be large or run the other way.
Outcome codes: active, inactive

compound | class_name
C[N+](C)(C)CCCl | inactive
CC[C@H]1C[C@H]2[C@@H]3CCC4=CC(=O)CC[C@@H]4[C@H]3CC[C@]2(C)[C@H]1O | inactive
OCCCBr | inactive
CC(=O)[C@H]1CC[C@H]2[C@@H]3CC[C@H]4C[C@](C)(O)CC[C@]4(C)[C@H]3CC[C@]12C | inactive
O=C1NCN(c2ccccc2)C12CCN(CCCOc1ccc(F)cc1)CC2 | inactive
CCC(Cl)CCl (configuration not stated) | inactive
Clc1ccc(C(OCCN2CCCCC2)c2ccccc2)cc1 (configuration not stated) | inactive
O=C1C(Cl)C(CCl)CN1c1cccc(C(F)(F)F)c1 (configuration not stated) | inactive
COC(N)=O | inactive
CC(Cl)C(C)Cl (configuration not stated) | inactive
O=C(O)CC(Cl)C(=O)O (configuration not stated) | inactive
O=C(O)C1(c2ccc3c(c2)OC[C@H](Cc2ccc(-c4ccccc4)cc2)[C@H]3O)CCCC1 | inactive
Nc1ccc(N=Nc2ccc(-c3ccc(N=Nc4c(S(=O)(=O)O)cc5cc(S(=O)(=O)O)c(N=Nc6ccccc6)c(O)c5c4N)cc3)cc2)c(N)c1 | active
COC(C)(C)CCC[C@H](C)C/C=C/C(C)=C/C(=O)OC(C)C | inactive
O=[N+]([O-])c1ccccc1CCl | inactive
CCCC(=O)Cl | inactive
C[C@@H]1CC[C@H]2[C@@H](C)C(=O)O[C@@H]3O[C@@]4(C)CC[C@@H]1[C@]32OO4 | inactive

====

assay_explanation: qHTS assay for identifying genotoxic compounds that show differential cytotoxicity against isogenic chicken DT40 cell lines with known DNA damage response pathways - wild type cell line (AID 743012); also: nearly all actives have a fitted effect of over 60% in size
measurement_setup: DT40 wild type chicken cells viability, CellTiter-Glo, 40 h; series mostly up to 68.4 µM
Inconclusive results are not listed. Activity calls are given as the source filed them. The call rests on the fitted dose curve; in most records, active means well fitted cell-killing curve with a large enough effect in the repeat runs; inconclusive means weak or mixed curves, or effect the other way; inactive means no such curve, though single readings can be large or run the other way.
Outcomes: active, inactive

compound | class_name
Clc1ccc(C(OCCN2CCCCC2)c2ccccc2)cc1 (centres undefined) | active
O=C=Nc1ccc(Cl)cc1 | active
O=C(O)CC(Cl)C(=O)O (centres undefined) | inactive
COc1ccc(-c2ccccc2)cc1NNC(=O)OC(C)C | active
CC(=O)[C@H]1CC[C@H]2[C@@H]3CC[C@H]4C[C@](C)(O)CC[C@]4(C)[C@H]3CC[C@]12C | inactive
C[C@H]1CNCCc2ccc(Cl)cc21 | active
O=C(O)C1(c2ccc3c(c2)OC[C@H](Cc2ccc(-c4ccccc4)cc2)[C@H]3O)CCCC1 | active
Nc1nc(=S)[nH][nH]1 | inactive
Clc1ccc(C2(Cn3cncn3)CC(Br)CO2)c(Cl)c1 (centres undefined) | active
CCOP(=S)(OCC)SCn1nnc2ccccc2c1=O | active
ClC=C(Cl)Cl | inactive
BrCCCCBr | inactive
C=CC[C@]1(O)CC[C@H]2[C@@H]3CCC4=CC(=O)CCC4=C3C=C[C@@]21C | active
CCOP(O)OCC | inactive
